- test-conditions: McCord-Fridovich assay conditions, HEPES buffer pH 7.5, excess ligand, Mn^2+ 0.1 μM; estimated from βMnL
Binary call on conditional complex formation: Met from 80% upward, Not met beneath that.

**Query** Item c1ccc(CN(Cc2ccccn2)Cc2ccccn2)nc1 [TMPA, Tris(pyridin-2-ylmethyl)amine] with conditional complex formation of 80% or above?
**Result** Met

**Query** Item OCCN(CCO)Cc1ccccn1 [PDEA] with conditional complex formation of 80% or above?
**Result** Not met

**Query** Item COCCN(CCOC)Cc1ccccn1 [PDMEA] with conditional complex formation of 80% or above?
**Result** Not met

**Query** Item OCCN(Cc1ccccn1)Cc1ccccn1 [DPEA, N,N-Bis(2-pyridylmethyl)ethanolamine] with conditional complex formation of 80% or above?
**Result** Met

====

For each of the molecules below, state its Log Ka MnL(H2O).
- test-conditions: Table S35; I = 0.10 M KCl, t = 25°C

// sample "OCCN(Cc1ccccn1)Cc1ccccn1" , its Log Ka MnL(H2O) was -5.63(1)

// sample "c1ccc(CN(Cc2ccccn2)Cc2ccccn2)nc1" , its Log Ka MnL(H2O) was -4.98(3)

// sample "COCCN(CCOC)Cc1ccccn1" , its Log Ka MnL(H2O) was -6.6(1)

// sample "OCCN(CCO)Cc1ccccn1" , its Log Ka MnL(H2O) was -7.00(2)

// sample "COCCN(Cc1ccccn1)Cc1ccccn1" , its Log Ka MnL(H2O) was -6.07(2)

====

For each of the compounds below, state its Log βMnL (stability constant of the Mn^2+ complex).
- test-conditions: I = 0.10 M KCl, t = 25 °C

// sample "OCCN(Cc1ccccn1)Cc1ccccn1" , its Log βMnL (stability constant of the Mn^2+ complex) was 4.12(1)

// sample "c1ccc(CN(Cc2ccccn2)Cc2ccccn2)nc1" , its Log βMnL (stability constant of the Mn^2+ complex) was 5.24(2)

// sample "COCCN(Cc1ccccn1)Cc1ccccn1" , its Log βMnL (stability constant of the Mn^2+ complex) was 3.71(2)

// sample "COCCN(CCOC)Cc1ccccn1" , its Log βMnL (stability constant of the Mn^2+ complex) was 2.32(2)

====

- System: superoxide ion
- method-description: McCord-Fridovich assay (SOD activity, inhibition of ferricytochrome c reduction by superoxide ion)
- Type: biochemical
- test-conditions: 50 mM phosphate buffer, pH 7.5; read-out: measured IC50
metric-name: pIC50
By convention, pIC50 is the negative base-10 log of a molar concentration.

GET /values?item= [Cl][Mn][Cl] [MnCl2, manganese(II) chloride, reference compound] &system= superoxide ion returns pIC50: 6.33

====

- method-description: Potentiometric titration of the acidified ligands (protonation constants)
- test-conditions: Table S35; I = 0.10 M KCl, t = 25°C
metric-name: Log Ka1

// sample "OCCN(CCO)Cc1ccccn1" , its Log Ka1 was 6.78(1)

// sample "COCCN(CCOC)Cc1ccccn1" , its Log Ka1 was 6.90(2)

// sample "c1ccc(CN(Cc2ccccn2)Cc2ccccn2)nc1" , its Log Ka1 was 6.01(1)

// sample "OCCN(Cc1ccccn1)Cc1ccccn1" , its Log Ka1 was 6.10(1)

// sample "COCCN(Cc1ccccn1)Cc1ccccn1" , its Log Ka1 was 6.19(1)

FYI, the data here is from paper PMC12658643.
